- Test system: HCI16 (cells of a triple-negative basal-like breast cancer xenograft);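 note: PDX cells carrying CMV promoter-driven luciferase, viability read as total photon flux per second by IVIS imaging following D-luciferin, vehicle control 0.1% DMSO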
- testSummary: cell viability (% of vehicle); higher = less cytotoxic
- testParameters: 10 µM; 72 h
# cell viability per record follows
experimentalReadout: cell viability

INSERT INTO measurements (molecule, observedvalue) VALUES
  ('Cc1nnc(C(C)C)n1C1CC2CCC(C1)N2CCC(NC(=O)C1CCC(F)(F)CC1)c1ccccc1 (centres undefined)', 163),
  ('CCCS(=O)c1ccc2nc(NC(=O)OC)[nH]c2c1 (centres undefined) [Albendazole Oxide]', 106),
  ('Cc1cccc(Nc2ccncc2S(=O)(=O)NC(=O)NC(C)C)c1 [Torsemide]', 127),
  ('CCCCN1CCCCC1C(=O)Nc1c(C)cccc1C.Cl (centres undefined) [Bupivacaine HCl]', 169);
